METHOD_SUMMARY: Aqueous solubility
Assay type: physicochemical
CONDITION_DETAILS: fassgf or other biorelevant, kinetic from dmso stock; simulated intestinal fluid pH 7.5, tested at 200 μM; read-out: aqueous solubility simulated intestinal fluid
I'd be grateful if you could share measured solubility at 24 h for these entries.
Please make sure the unit comes right after the number.

So what does the record say about solubility at 24 h for CC(C)(C)c1ccc(C#CC(O)c2ccccc2)cc1 (racemic) ?
102 µM

// moving on: another record for solubility at 24 h
So what does the record say about solubility at 24 h for `Clc1cccc(C#Cc2n[nH]c3ncccc23)c1` ?
26.7 µM

---

I'd be grateful if you could share measured IC50 for these entries.
TARGET_UNDER_TEST: UniProt:P32238
Sequence (P32238 whole entry): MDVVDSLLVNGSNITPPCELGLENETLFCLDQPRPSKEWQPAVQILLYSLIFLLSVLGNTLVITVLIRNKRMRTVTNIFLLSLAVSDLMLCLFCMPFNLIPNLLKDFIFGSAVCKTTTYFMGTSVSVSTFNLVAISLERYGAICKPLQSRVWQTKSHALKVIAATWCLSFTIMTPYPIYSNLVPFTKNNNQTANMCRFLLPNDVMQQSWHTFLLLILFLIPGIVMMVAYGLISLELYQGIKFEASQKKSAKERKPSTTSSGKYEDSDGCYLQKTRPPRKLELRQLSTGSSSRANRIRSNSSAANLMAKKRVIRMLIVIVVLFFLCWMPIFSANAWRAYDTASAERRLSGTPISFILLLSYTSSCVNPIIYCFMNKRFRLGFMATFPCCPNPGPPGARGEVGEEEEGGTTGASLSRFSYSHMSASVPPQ
METHOD_SUMMARY: Calcium Flux CCKAR Antagonist
CONDITION_DETAILS: Calcium Flux CCKAR Antagonist; read-out: RC50, result type IC50

So what does the record say about IC50 for CC(C)(C)c1ccc(C#CC(O)c2ccccc2)cc1 (racemic) [Compound 3.3] ?
> 10 µM

// moving on: another record for IC50
So what does the record say about IC50 for Clc1cccc(C#Cc2n[nH]c3ncccc23)c1 [Compound 10.1] ?
> 10 µM

---

TARGET_UNDER_TEST: HTR3A (Homo sapiens)
Sequence (P46098 24-478): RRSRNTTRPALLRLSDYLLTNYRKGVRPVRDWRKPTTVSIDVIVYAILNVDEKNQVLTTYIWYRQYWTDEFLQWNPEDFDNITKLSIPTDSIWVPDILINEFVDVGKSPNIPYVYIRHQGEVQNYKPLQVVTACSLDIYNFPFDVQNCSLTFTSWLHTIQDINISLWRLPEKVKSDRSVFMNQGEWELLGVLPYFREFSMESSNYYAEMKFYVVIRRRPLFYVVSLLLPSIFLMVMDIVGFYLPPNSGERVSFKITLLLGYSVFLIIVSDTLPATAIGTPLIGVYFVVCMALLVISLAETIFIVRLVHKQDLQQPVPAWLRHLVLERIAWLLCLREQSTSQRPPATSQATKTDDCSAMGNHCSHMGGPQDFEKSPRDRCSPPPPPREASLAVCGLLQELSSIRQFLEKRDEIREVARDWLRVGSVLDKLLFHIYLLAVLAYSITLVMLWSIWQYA
METHOD_SUMMARY: Ion Channel HTR3A Blocker
pIC50: −log10 of the molar value.
MEASURED_ENDPOINT: pIC50

So what does the record say about pIC50 for CC(C)(C)c1ccc(C#CC(O)c2ccccc2)cc1 (racemic) [Compound 3.3] ?
< 5.00

// moving on: another record for pIC50
So what does the record say about pIC50 for Clc1cccc(C#Cc2n[nH]c3ncccc23)c1 [Compound 10.1] ?
< 5.00

---

pIC50: −log10 of the molar value.
What follows is a collection of pIC50 values obtained with INSR (Homo sapiens, UniProt P06213).
Sequence (P06213 28-1382): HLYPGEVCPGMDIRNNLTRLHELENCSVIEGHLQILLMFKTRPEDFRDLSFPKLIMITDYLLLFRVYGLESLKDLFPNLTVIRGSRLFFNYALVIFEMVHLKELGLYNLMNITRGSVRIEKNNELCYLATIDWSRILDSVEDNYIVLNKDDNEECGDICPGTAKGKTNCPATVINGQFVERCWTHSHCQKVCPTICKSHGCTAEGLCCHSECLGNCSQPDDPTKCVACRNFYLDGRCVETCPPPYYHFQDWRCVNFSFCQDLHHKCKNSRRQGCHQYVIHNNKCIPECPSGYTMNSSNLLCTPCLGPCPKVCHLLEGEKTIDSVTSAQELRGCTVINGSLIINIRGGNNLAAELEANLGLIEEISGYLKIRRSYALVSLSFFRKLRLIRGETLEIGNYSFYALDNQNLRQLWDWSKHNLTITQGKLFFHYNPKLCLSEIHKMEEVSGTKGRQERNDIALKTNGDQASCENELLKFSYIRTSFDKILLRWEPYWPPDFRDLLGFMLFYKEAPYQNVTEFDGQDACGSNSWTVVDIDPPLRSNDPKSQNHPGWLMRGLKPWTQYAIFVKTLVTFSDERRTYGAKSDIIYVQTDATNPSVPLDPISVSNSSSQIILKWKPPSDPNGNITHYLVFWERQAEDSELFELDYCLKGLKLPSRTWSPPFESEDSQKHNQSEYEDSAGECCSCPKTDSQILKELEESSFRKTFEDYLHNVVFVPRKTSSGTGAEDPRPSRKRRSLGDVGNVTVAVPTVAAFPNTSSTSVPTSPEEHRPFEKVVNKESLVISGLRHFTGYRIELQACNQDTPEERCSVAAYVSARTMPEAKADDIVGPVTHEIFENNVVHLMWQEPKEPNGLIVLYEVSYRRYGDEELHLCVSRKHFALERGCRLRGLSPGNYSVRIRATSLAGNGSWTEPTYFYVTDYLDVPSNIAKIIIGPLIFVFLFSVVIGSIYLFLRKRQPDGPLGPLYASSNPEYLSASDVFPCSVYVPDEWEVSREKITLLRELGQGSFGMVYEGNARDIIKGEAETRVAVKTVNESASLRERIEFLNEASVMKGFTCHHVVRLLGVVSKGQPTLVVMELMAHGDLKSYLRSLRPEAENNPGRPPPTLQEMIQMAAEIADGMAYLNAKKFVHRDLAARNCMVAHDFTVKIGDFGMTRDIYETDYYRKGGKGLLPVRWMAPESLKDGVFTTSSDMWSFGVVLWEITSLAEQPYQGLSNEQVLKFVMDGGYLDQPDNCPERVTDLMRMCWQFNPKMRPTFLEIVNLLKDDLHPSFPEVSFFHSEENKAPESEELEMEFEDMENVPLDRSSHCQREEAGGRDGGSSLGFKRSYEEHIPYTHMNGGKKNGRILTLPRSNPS

So what does the record say about pIC50 for `Clc1cccc(C#Cc2n[nH]c3ncccc23)c1` ?
< 5.00

// moving on: another record for pIC50
So what does the record say about pIC50 for CC(C)(C)c1ccc(C#CC(O)c2ccccc2)cc1 (racemic) ?
< 5.00

---

I'd be grateful if you could share measured pEC50 for these entries.
TARGET_UNDER_TEST: DRD1 (Homo sapiens, UniProt P21728)
Sequence (P21728 whole entry): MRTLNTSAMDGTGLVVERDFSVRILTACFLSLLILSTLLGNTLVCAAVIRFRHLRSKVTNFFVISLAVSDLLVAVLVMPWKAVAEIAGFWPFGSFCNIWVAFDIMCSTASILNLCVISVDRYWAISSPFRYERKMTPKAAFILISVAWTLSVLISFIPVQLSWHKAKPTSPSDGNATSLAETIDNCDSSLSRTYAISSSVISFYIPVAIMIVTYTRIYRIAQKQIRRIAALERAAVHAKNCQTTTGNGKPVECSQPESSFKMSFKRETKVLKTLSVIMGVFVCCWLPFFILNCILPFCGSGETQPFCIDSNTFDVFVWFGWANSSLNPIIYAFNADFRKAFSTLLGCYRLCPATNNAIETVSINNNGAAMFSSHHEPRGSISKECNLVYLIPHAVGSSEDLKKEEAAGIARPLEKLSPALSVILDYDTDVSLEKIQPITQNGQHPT
METHOD_SUMMARY: cAMP DRD1 Agonist
pEC50: −log10 of the molar value.

So what does the record say about pEC50 for Clc1cccc(C#Cc2n[nH]c3ncccc23)c1 [Compound 10.1] ?
< 5.00

// moving on: another record for pEC50
So what does the record say about pEC50 for CC(C)(C)c1ccc(C#CC(O)c2ccccc2)cc1 (racemic) [Compound 3.3] ?
< 5.00
